B1: Osa-1-4 twister ribozyme (parent)
chain: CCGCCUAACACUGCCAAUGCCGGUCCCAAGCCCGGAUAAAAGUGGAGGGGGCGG

# Variants of: B1
# Experiment Notes: self-cleavage, relative activity (ratio to wild type); higher = more cleavage; co-transcriptional
# self-cleavage per entry
# answer = number (no unit)

Past entries and their recorded results:
| Residue Sequence | Assay Readout | Experimental Value |
| --- | --- | --- |
| CCGCCUAACACUGCCCAUGCCGGUCCCAAGCCCGGAUAAAAGUGGCGGGGGCGG [A16C A46C] | self-cleavage | 0.06 |
| CCGCCUAACACUGCCAAUGCCGGUCCCAAGCCCCGAUAAAGGUGGAGGGGGCGG [A41G G34C] | self-cleavage | 0.16 |
| CCGCCUAACACUGCCAAUGCCGGUCCCAAGCUCGGAUAAGAGUGGAGGGGGCGG [A40G C32U] | self-cleavage | 0.09 |
| CCGCCUAACACUGCCAAUGCCGGUCCCAAUCCCGGAUAAAAGUGAAGGGGGCGG [G30U G45A] | self-cleavage | 0.03 |
| CCGCCUAACACUGCCGAUGCCGGUCCCAAGCCCGGAUAAAAGUGGAGGGCGCGG [A16G G50C] | self-cleavage | 0.95 |
| CCGCCUAACACUGCCAAUGCCGGUCCCAAGCCCGGAUACGAGUGGAGGGGGCGG [A39C A40G] | self-cleavage | 0.59 |
| CCGCCUAACACUGCCAAUGCCGGUGCCAAGCCCGGAUAAAAGUGGAGGAGGCGG [C25G G49A] | self-cleavage | 0.07 |
| CCGCCUAACAAUGCCAAUGUCGGUCCCAAGCCCGGAUAAAAGUGGAGGGGGCGG [C11A C20U] | self-cleavage | 0.66 |
| CCGCCUAACACUGCCAAUGCCGGUCCGAAGCCCGUAUAAAAGUGGAGGGGGCGG [C27G G35U] | self-cleavage | 0.1 |
| CCGCCUAACACUUCCAAUGCCGGUCCCAAGCCAGGAUAAAAGUGGAGGGGGCGG [C33A G13U] | self-cleavage | 0.02 |

Let us move to another entry and its self-cleavage.
Qu. Return reported self-cleavage. Input variant: CCGCCUAACACUGCCAAUGCCUGUCCCAAGCACGGAUAAAAGUGGAGGGGGCGG [C32A G22U]
Ans. 0.06
